The following compounds are listed with their measured growth values.
test system: 786-0 renal; test: NCI-60 one-dose screen, 48 h (100 = growth as untreated, 0 = no growth, -100 = all killed); settings: 10 µM
The panel holds about 83,000 compounds, 20% with a hit somewhere; the sample as a whole holds those more often.
property-label: growth (%)

In [3]: df
Out[3]:
                                   compound  unit_of_measure  measurement
0  C#CCN(Cc1ccc2nc(N)[nH]c(=O)c2c1)c1ccc(C(=O)NC(CCC(=O)O)C(=O)O)cc1 (centres undefined)                %           12
1          COc1ccc(C(=O)C(CN(C)C)CN(C)C)cc1                %         87.8
2                     Cc1ccc(Sc2ccccc2N)cc1                %          108
3  Cc1cc(N(CCOS(C)(=O)=O)CCOS(C)(=O)=O)ccc1C=Nc1ccc(-c2nc(Cc3ccccc3)sc2C)cc1                %         13.8

====

system: SNB-19 CNS; assay: NCI-60 one-dose screen, 48 h (100 = growth as untreated, 0 = no growth, -100 = all killed); details: 10 µM
About 83,000 compounds went through this panel and 20% of them were active in at least one assay; those are over-represented in the sample as a whole.
Mark true only when growth stays strictly below 50%. Values equal to the cut-off are false.

                                   compound  class
0             O=[N+]([O-])c1cc[n+]([O-])cc1  false
1  Cc1cc(N(CCOS(C)(=O)=O)CCOS(C)(=O)=O)ccc1C=Nc1ccc(-c2nc(Cc3ccccc3)sc2C)cc1   true
2  C=C1C(=O)OC2CC1C(OC(C)=O)C/C(C)=C/CC/C(C)=C\CCC2(C)O (stereo not given)  false
3          COc1ccc(C(=O)C(CN(C)C)CN(C)C)cc1  false
4                     Cc1ccc(Sc2ccccc2N)cc1  false

====

test system: PC-3 prostate; experiment: NCI-60 one-dose screen, 48 h (100 = growth as untreated, 0 = no growth, -100 = all killed); details: 10 µM
Compounds without any hit were thinned out: in the full panel of roughly 83,000, 20% have a hit.
property-label: growth (%)

                                   molecule    test_target  property_label  measurement
0  Cc1cc(N(CCOS(C)(=O)=O)CCOS(C)(=O)=O)ccc1C=Nc1ccc(-c2nc(Cc3ccccc3)sc2C)cc1  PC-3 prostate          growth           55
1                     Cc1ccc(Sc2ccccc2N)cc1  PC-3 prostate          growth         74.4
2  C=C1C(=O)OC2CC1C(OC(C)=O)C/C(C)=C/CC/C(C)=C\CCC2(C)O (centres undefined)  PC-3 prostate          growth         18.3
3          COc1ccc(C(=O)C(CN(C)C)CN(C)C)cc1  PC-3 prostate          growth         89.6

====

Tested on: HCT-116 colon
Assay: NCI-60 one-dose screen, 48 h (100 = growth as untreated, 0 = no growth, -100 = all killed)
Settings: 10 µM
Protocol: Growth inhibition of the HCT-116 human tumor cell line is measured as a screen for anti-cancer activity. Cells are grown in 96 well plates and exposed to the test compound for 48 hours. Compounds are tested at a single concentration, which is 10^-5 M for most compounds. The reported endpoint is percent growth (GI% or GIPRCNT), where numbers from 0 - 100% represent growth inhibition, and numbers from -100% - 0 represent cell death. For example, a value of 40 represents 60% growth inhibition. […]
This is part of a sample that, as a whole, favours compounds with a hit. Of some 83,000 tested, about 20% had one in any assay.
property-label: growth (%)

>>> print(df.to_string())
                                   compound    test_target  unit_of_measure  measurement
0  C=C1C(=O)OC2CC1C(OC(C)=O)C/C(C)=C/CC/C(C)=C\CCC2(C)O (centres undefined)  HCT-116 colon                %        -64.7
1          COc1ccc(C(=O)C(CN(C)C)CN(C)C)cc1  HCT-116 colon                %         4.91
2             O=[N+]([O-])c1cc[n+]([O-])cc1  HCT-116 colon                %          107
3                     Cc1ccc(Sc2ccccc2N)cc1  HCT-116 colon                %         55.8
